Endpoint summary: pIC50, system: Pancreatic triacylglycerol lipase (Sus scrofa), multiple sources combined.
Value format note: pIC50 is -log10 of concentration (mol/L); just state the number.

Data point: `O=C(O[C@@H]1O[C@@H]2COC(=O)c3cc(O)c(O)c(O)c3-c3c(cc(O)c(O)c3O)C(=O)O[C@H]2[C@H](OC(=O)c2cc(O)c(O)c(O)c2)[C@H]1OC(=O)c1cc(O)c(O)c(O)c1)c1cc(O)c(O)c(O)c1` ; pIC50 = 7.13

The molecule listed as `CCCCCCCCCCCC1=C(OC(=O)c2ccccc2[N+](=O)[O-])C(=O)C=C(OC(=O)c2ccccc2[N+](=O)[O-])C1=O` has a reported pIC50 of 4.34

Entry `CCCCCCCCCCCC1=C(OC(=O)c2cccc(OC)c2)C(=O)C=C(OC(=O)c2cccc(OC)c2)C1=O` ; pIC50 = 4.09

Per the record, `CCCCCCCCCCCCCCCCOc1nn(-c2cccc(OC(F)(F)F)c2)c(=O)o1` has pIC50 of 5.60

Per the record, C=C(C)C1CCC(C)CC1OC(=O)NCCCC (stereo not drawn) has pIC50 of 3.47

// recorded pIC50 for `O=C(O[C@@H]1Cc2c(O)cc(O)cc2O[C@@H]1c1cc(O)c(O)c(O)c1-c1c([C@H]2Oc3cc(O)cc(O)c3C[C@H]2OC(=O)c2cc(O)c(O)c(O)c2)cc(O)c(O)c1O)c1cc(O)c(O)c(O)c1` : 7.01

pIC50 for `O=C(O[C@@H]1Cc2c(O)cc(O)cc2O[C@@H]1c1ccc(O)c(O)c1)c1cc(O)c(=O)c2c(O)c(O)c(O)cc2c1` is 7.02

Field pIC50 (entry CCCCNC(=O)OC1CCCCC1C(C)C (stereo not drawn) ) reads 3.11

Given item `CCCCCCCCCCCC1=C(OC(=O)c2ccccc2I)C(=O)C=C(OC(=O)c2ccccc2I)C1=O` , the value recorded as its pIC50 is 3.89

Entry `CCCCCCCCOc1nn(-c2ccc(OC(F)(F)F)cc2)c(=O)o1` ; pIC50 = 6.46

Record CCCCNC(=O)OC1CCCC(C)C1C (stereo not drawn) . Reported pIC50: 3.17
